target_entity: T1, human [1-305]-mouse chimeric EL (human; mouse, UniProt Q9WVG5 306-500)
T1 construct: Heparin extract, captured or detected by an anti-C2-tag antibody; also called human-mouse chimeric EL
T1 sequence: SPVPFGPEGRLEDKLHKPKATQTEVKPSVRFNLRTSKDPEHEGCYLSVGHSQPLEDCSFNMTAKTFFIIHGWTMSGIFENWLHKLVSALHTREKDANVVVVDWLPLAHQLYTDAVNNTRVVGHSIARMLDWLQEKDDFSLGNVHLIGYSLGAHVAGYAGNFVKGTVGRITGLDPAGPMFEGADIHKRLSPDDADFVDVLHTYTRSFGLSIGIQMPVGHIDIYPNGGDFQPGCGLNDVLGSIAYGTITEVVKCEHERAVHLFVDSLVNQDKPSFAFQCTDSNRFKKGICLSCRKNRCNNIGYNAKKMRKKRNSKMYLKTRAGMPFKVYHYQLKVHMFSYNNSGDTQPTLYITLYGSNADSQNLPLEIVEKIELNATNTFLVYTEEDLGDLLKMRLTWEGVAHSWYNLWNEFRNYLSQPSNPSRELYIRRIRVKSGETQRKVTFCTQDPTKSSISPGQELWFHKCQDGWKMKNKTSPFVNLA
test_description: Biacore; EL captured by anti-C2-tag Ab; bivalent fit
result_type: koff (s⁻¹)
Numeric only. Scale: s⁻¹

[[record]]
binder = "h55A1-S5 (antibody, V domains shown, humanized) VH: QVQLVQSGSELKKPGASVKVSCKASGYTFTNYAMNWVRQAPGQGLEWMGWINTYSGVGTYAGDFKGRFVFSLDTSVSTAYLQISSLKAEDTAVYYCARRGFYGRRFFDVWGKGTTVTVSS VL: DIVLTQSPASLAVSPGQRATITCKASQSVDYDVDSYMHWYQQKPGQPPKLLIYAASNLASGVPARFSGSGSGTDFTLTINPVEANDTANYYCQNTIEDPPTFGGGTKVEIK"
reported = 0.00033


May I ask what koff has been recorded for h55A1-F3 (antibody, V domains shown, humanized) VH: QVQLVQSGAEVKKPGASVKVSCKASGYTFTNYGMNWVRQAPGQGLEWMGWINTYSGVPTYAGDFKGRVTMTTDTSTSTAYMELRSLRSDDTAVYYCARRGYYGRRYFDVWGKGTTVTVSS VL: DIQLTQSPSSLSASVGDRVTITCKASQSVDYDVDSYMHWYQQKPGKAPKLLIYAASNLASGVPSRFSGSGSGTDFTLTISSLQPEDFATYYCQQTIEDPPTFGGGTKVEIK ?
3.3e-05
